Data provenance: patent US20230295330A1

- Assayed Target: T1, CD228 on A375 and A2058 cells (human, UniProt P08582 20-709)
- T1 construct: whole, on cells; GPI-anchored cell surface protein; also called CD228 on A375 cells; CD228 on A2058 cells
- T1 sequence (looked up): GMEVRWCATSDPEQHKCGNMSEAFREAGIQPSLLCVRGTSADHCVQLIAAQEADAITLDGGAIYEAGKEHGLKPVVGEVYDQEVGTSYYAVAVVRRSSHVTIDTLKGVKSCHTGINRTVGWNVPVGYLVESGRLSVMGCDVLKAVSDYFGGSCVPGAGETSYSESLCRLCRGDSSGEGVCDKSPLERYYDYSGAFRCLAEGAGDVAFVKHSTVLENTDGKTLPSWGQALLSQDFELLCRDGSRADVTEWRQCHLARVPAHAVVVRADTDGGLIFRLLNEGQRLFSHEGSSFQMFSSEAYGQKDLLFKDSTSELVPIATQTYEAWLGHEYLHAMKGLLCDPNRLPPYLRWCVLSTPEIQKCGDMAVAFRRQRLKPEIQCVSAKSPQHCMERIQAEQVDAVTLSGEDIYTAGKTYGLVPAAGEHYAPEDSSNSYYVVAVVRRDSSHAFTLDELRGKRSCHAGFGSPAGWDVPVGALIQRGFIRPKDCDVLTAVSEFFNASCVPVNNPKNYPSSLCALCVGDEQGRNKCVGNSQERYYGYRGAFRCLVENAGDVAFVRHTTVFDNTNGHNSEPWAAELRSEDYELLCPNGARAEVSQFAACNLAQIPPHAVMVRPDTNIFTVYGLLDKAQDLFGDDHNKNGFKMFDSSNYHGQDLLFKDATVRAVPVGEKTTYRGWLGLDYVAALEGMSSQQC
- Method Notes: flow cytometry saturation binding on A2058 cells (~40K receptors), neutral pH
- Experimental: The ability of various anti-CD228 antibodies to bind to CD228 on A375 cells, A2058 cells, and CD228 protein was evaluated at neutral pH using a saturation binding assay. Briefly, 1×10⁵ A2058 or A375 cells that have either 40,000 or 18,000 copies of CD228 respectively, were aliquoted per well of a 96-well v-bottom plates. […] Fluorescence was analyzed by flow cytometry, using percent of saturated fluorescent signal to determine percent bound and to subsequently calculate apparent KID. […]
Measured Parameter: EC50 (nM)
Give the number; nM is assumed, so skip it.

As a guide, the following entries are already answered.
INSERT INTO assay_data (binder, measured_parameter, test_result) VALUES
  ('hL49_27D_Ala (antibody, V domains shown, hL49 variant with the light chain CDR-L1 histidine 27D changed to alanine) VH: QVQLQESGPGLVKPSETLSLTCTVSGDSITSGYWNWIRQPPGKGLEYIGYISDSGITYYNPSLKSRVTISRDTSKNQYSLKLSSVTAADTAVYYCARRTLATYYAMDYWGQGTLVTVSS VL: DFVMTQSPLSLPVTLGQPASISCRASQSLVASDGNTYLHWYQQRPGQSPRLLIYRVSNRFSGVPDRFSGSGSGTDFTLKISRVEAEDVGVYYCSQSTHVPPTFGQGTKLEIK', 'EC50', 0.6),
  ('hL49_27D_Gln (antibody, V domains shown, hL49 variant with the light chain CDR-L1 histidine 27D changed to glutamine) VH: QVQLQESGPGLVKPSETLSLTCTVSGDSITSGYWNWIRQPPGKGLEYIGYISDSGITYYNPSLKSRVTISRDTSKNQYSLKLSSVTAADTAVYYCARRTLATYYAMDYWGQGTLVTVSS VL: DFVMTQSPLSLPVTLGQPASISCRASQSLVQSDGNTYLHWYQQRPGQSPRLLIYRVSNRFSGVPDRFSGSGSGTDFTLKISRVEAEDVGVYYCSQSTHVPPTFGQGTKLEIK', 'EC50', 0.5);

Now look at this entry.
May I ask what EC50 has been recorded for hL49_34_Gln (antibody, V domains shown, hL49 variant with the light chain CDR-L1 histidine 34 changed to glutamine) VH: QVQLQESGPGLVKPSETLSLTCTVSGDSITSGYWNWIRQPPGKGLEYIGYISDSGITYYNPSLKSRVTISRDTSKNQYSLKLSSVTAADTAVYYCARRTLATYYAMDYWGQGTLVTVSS VL: DFVMTQSPLSLPVTLGQPASISCRASQSLVHSDGNTYLQWYQQRPGQSPRLLIYRVSNRFSGVPDRFSGSGSGTDFTLKISRVEAEDVGVYYCSQSTHVPPTFGQGTKLEIK ?
2.1
